- protocol-notes: Half life in Mouse brain hom
- Type: ADME, organism-based
- condition-details: brain homogenate
assay-endpoint: half-life (min)
Answer format: numeric, min implied, no suffix.

INSERT INTO results (smi, experimental_value) VALUES
  ('Cc1cn([C@H]2C[C@H](N=[N+]=[N-])[C@@H](COC(=O)c3ccc[n+](C)c3)O2)c(=O)[nH]c1=O.[I-]', 101),
  ('Cc1cn([C@H]2C[C@H](N=[N+]=[N-])[C@@H](COC(=O)C3=CN(C)C=CC3)O2)c(=O)[nH]c1=O', 10.8),
  ('CN1C=CCC(C(=O)OC[C@H]2O[C@@H](n3ccc(=O)[nH]c3=O)C[C@@H]2N=[N+]=[N-])=C1', 10.2);

Now examine the next entry.
Short answer for C[n+]1cccc(C(=O)OC[C@H]2O[C@@H](n3ccc(=O)[nH]c3=O)C[C@@H]2N=[N+]=[N-])c1.[I-] : half-life was 39
